test system: MDA-MB-231 breast; experiment: NCI tumour cell line growth inhibition, 48 h
readout name: TGI (µM)
The answer is to be given in µM; state only the numeric part.

INSERT INTO assay_data (compound, numeric_readout) VALUES
  ('COc1cc2c(c(OC)c1OC)-c1ccc(OC)c(=O)cc1[C@@H](NC(=O)c1ccccc1)CC2', 15.7);

Given the entry CC1OC(OC2C(O[C@H]3CC[C@@]4(C)C(=CC[C@H]5[C@@H]6C[C@@H]7O[C@]8(CC[C@@H](CO)CO8)[C@@H](C)[C@@H]7[C@@]6(C)CC[C@@H]54)C3)OC(CO)C(O)C2OC2OC(CO)C(O)C(O)C2O)C(O)C(O)C1O (some centres undefined) , report its measured TGI. 3.25

Please report the recorded TGI for "COC(=O)[C@H](C)NC(=O)NC(=O)NC(=O)CI" . 37.9

Entry under review: "CCOCc1nc2c(OC)cc(-c3nc4ccc(N5CCN(C)CC5)cc4[nH]3)c(OC)c2[nH]1" . Reported TGI? 81.9

The values you see were collected from PubChem BioAssay (NCI).
